# test system: Tyrosine-protein phosphatase non-receptor type 2 (Homo sapiens)
# Sequence (P17706 whole entry): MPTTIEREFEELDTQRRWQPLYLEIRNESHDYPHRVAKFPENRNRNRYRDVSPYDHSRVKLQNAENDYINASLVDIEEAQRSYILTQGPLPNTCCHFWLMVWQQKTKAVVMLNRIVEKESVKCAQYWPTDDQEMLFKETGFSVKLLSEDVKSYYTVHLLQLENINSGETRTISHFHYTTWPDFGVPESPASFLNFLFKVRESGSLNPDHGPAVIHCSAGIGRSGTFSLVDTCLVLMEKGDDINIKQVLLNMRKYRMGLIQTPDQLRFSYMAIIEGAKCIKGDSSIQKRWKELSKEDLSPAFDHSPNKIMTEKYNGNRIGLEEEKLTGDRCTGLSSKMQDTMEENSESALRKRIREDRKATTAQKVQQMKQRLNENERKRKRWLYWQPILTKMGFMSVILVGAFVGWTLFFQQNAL
value type: IC50

Example entries and their recorded answers appear below.
| molecular string | IC50 |
| --- | --- |
| O=C1CN(c2c(O)cc3ccc(NCCC4CC4)cc3c2F)S(=O)(=O)N1 | 1 nM |
| O=C1CN(c2c(O)cc3ccc(-c4cnn(CC5CC5)c4)cc3c2F)S(=O)(=O)N1 | < 1 nM |

IC50 in this record for CC(C)(O)CCOc1ccc2c(F)c(N3CC(=O)NS3(=O)=O)c(O)cc2c1 : > 10 nM

This collection of values is drawn from ChEMBL document CHEMBL5029191.
